# TARGET SYSTEM: T1, Bovine, dephosphorylated, Myelin Basic Protein (MBP), P02687
# T1 chain: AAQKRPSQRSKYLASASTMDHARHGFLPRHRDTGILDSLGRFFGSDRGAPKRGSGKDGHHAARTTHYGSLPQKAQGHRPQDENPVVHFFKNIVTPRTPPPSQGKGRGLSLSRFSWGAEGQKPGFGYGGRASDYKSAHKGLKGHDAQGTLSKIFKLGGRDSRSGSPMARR
OBSERVATION TYPE: MBP Kinase Activity

Past entries and their recorded results:
MAPKAPK3 (protein) MDGETAEEQGGPVPPPVAPGGPGLGGAPGGRREPKKYAVTDDYQLSKQVLGLGVNGKVLECFHRRTGQKCALKLLYDSPKARQEVDHHWQASGGPHIVCILDVYENMHHGKRCLLIIMECMEGGELFSRIQERGDQAFTEREAAEIMRDIGTAIQFLHSHNIAHRDVKPENLLYTSKEKDAVLKLTDFGFAKETTQNALQTPCYTPYYVAPEVLGPEKYDKSCDMWSLGVIMYILLCGFPPFYSNTGQAISPGMKRRIRLGQYGFPNPEWSEVSEDAKQLIRLLLKTDPTERLTITQFMNHPWINQSMVVPQTPLHTARVLQEDKDHWDEVKEEMTSALATMRVDYDQVKIKDLKTSNNRLLNKRRKKQAGSSSASQGCNNQ: Strong
MAPK14(p38alpha) (protein) MSQERPTFYRQELNKTIWEVPERYQNLSPVGSGAYGSVCAAFDTKTGLRVAVKKLSRPFQSIIHAKRTYRELRLLKHMKHENVIGLLDVFTPARSLEEFNDVYLVTHLMGADLNNIVKCQKLTDDHVQFLIYQILRGLKYIHSADIIHRDLKPSNLAVNEDCELKILDFGLARHTDDEMTGYVATRWYRAPEIMLNWMHYNQTVDIWSVGCIMAELLTGRTLFPGTDHINQLQQIMRLTGTPPAYLINRMPSHEARNYIQSLTQMPKMNFANVFIGANPLAVDLLEKMLVLDSDKRITAAQALAHAYFAQYHDPDDEPVADPYDQSFESRDLLIDEWKSLTYDEVISFVPPPLDQEEMES: Strong
MAP4K4(HGK) (protein) MANDSPAKSLVDIDLSSLRDPAGIFELVEVVGNGTYGQVYKGRHVKTGQLAAIKVMDVTEDEEEEIKLEINMLKKYSHHRNIATYYGAFIKKSPPGHDDQLWLVMEFCGAGSITDLVKNTKGNTLKEDWIAYISREILRGLAHLHIHHVIHRDIKGQNVLLTENAEVKLVDFGVSAQLDRTVGRRNTFIGTPYWMAPEVIACDENPDATYDYRSDLWSCGITAIEMAEGAPPLCDMHPMRALFLIPRNPPPRLKSKKWSKKFFSFIEGCLVKNYMQRPSTEQLLKHPFIRDQPNERQVRIQLKDHIDRTRKKRGEKDETEYEYSGSEE: Strong
INSRR (protein) YGKKRNRTLYASVNPEYFSASDMYVPDEWEVPREQISIIRELGQGSFGMVYEGLARGLEAGEESTPVALKTVNELASPRECIEFLKEASVMKAFKCHHVVRLLGVVSQGQPTLVIMELMTRGDLKSHLRSLRPEAENNPGLPQPALGEMIQMAGEIADGMAYLAANKFVHRDLAARNCMVSQDFTVKIGDFGMTRDVYETDYYRKGGKGLLPVRWMAPESLKDGIFTTHSDVWSFGVVLWEIVTLAEQPYQGLSNEQVLKFVMDGGVLEELEGCPLQLQELMSRCWQPNPRLRPSFTHILDSIQEELRPSFRLLSFYYSPECRGARGSLPTTDAEPDSSPTPRDCSPQNGGPGH: Negative

Quick note, MBP Kinase Activity for MAP2K3(MEK3) (protein) MSKPPAPNPTPPRNLDSRTFITIGDRNFEVEADDLVTISELGRGAYGVVEKVRHAQSGTIMAVKRIRATVNSQEQKRLLMDLDINMRTVDCFYTVTFYGALFREGDVWICMELMDTSLDKFYRKVLDKNMTIPEDILGEIAVSIVRALEHLHSKLSVIHRDVKPSNVLINKEGHVKMCDFGISGYLVDSVAKTMDAGCKPYMAPERINPELNQKGYNVKSDVWSLGITMIEMAILRFPYESWGTPFQQLKQVVEEPSPQLPADRFSPEFVDFTAQCLRKNPAERMSYLELMEHPFFTLHKTKKTDIAAFVKEILGEDS landed at Negative

Origin of values: patent US20090099029
